Read-out: Transforming growth factor beta 1 (TGFb1), TGFB1 (gene 7040)
Assay: BSK_BE3C_TGFb1: BioMAP Diversity Plus: BE3C Assay for Transforming growth factor beta 1 (TGFb1) Biomarker Activity (AID 2283036;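 also: TGF-b1 protein level measured by ELISA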)
Details: primary human bronchial epithelial cells; actives raise or lower the signal
The source made the active and inactive calls. The calls were made as follows: active = hit-call score of the fitted dose curve at least 0.9, where 1 is the maximum; inactive = score below 0.9.
MEASURED ATTRIBUTE: outcome

1. Nc1cc([N+](=O)[O-])ccc1Cl    inactive
2. CCCCC(CC)COCCC#N (stereo not drawn)    inactive
3. Cc1ccc(Nc2ccc(O)c3c2C(=O)c2ccccc2C3=O)cc1    inactive

---

Read-out: Monocyte Chemoattractant Protein-1 (MCP1), CCL2 (gene 6347)
Test: BSK_SAg_MCP1: BioMAP Diversity Plus: SAg Assay for Monocyte Chemoattractant Protein-1 (MCP1) Biomarker Activity (AID 2283090)
Conditions: primary human HUVEC with PBMC; actives raise or lower the signal
Calls of active or inactive are those of the source. The calls were made as follows: active = hit-call score of the fitted dose curve at least 0.9, where 1 is the maximum; inactive = score below 0.9.
Lab note: assign the record to one of yes (active), no (inactive)

1) CC1COc2ccccc2N1C(=O)C(Cl)Cl (centres undefined)    no

Please state the recorded outcome for this molecule: CC(C)c1ccc(C(C)C)cc1
no

Please state the recorded outcome for this molecule: CC(C)Oc1ccccc1O
no

Please state the recorded outcome for this molecule: O=C(O)C[C@H](O)C[C@H](O)/C=C/c1c(C2CC2)nc2ccccc2c1-c1ccc(F)cc1
no

Please state the recorded outcome for this molecule: O=P(c1ccccc1)(c1ccccc1)c1ccccc1
no

Please state the recorded outcome for this molecule: CC1CCC(C(C)CS)CC1S (centres undefined)
yes

Please state the recorded outcome for this molecule: O=[N+]([O-])c1cc(C(F)(F)F)ccc1Cl
no

Please state the recorded outcome for this molecule: OC1OC[C@@H](O)[C@H](O)[C@H]1O (some centres undefined)
no

Please state the recorded outcome for this molecule: Cc1ccc(O)c(C(C)(C)C)c1
yes

Please state the recorded outcome for this molecule: COC(=O)c1ccc(C)cc1
no

Please state the recorded outcome for this molecule: O=C(O)c1cn(C2CC2)c2cc(N3CCNCC3)c(F)cc2c1=O
no

Please state the recorded outcome for this molecule: CN(CCOc1ccc(CC2SC(=O)NC2=O)cc1)c1ccccn1 (centres undefined)
yes

Please state the recorded outcome for this molecule: Nc1cc([N+](=O)[O-])ccc1O
no

Please state the recorded outcome for this molecule: O=C1OC2(c3cc(Br)c(O)c(Br)c3Oc3c2cc(Br)c(O)c3Br)c2c(Cl)c(Cl)c(Cl)c(Cl)c21
yes

---

Experiment: BSK_LPS_PGE2: BioMAP Diversity Plus: LPS Assay for Prostaglandin E2 (PGE2) Biomarker Activity (AID 2283082)
Conditions: primary human HUVEC with PBMC; actives raise or lower the signal
Activity calls are given as the source filed them. How the source made its calls: active means hit-call score of the fitted dose curve at least 0.9, where 1 is the maximum; inactive means score below 0.9.
Lab note: assign the record to one of active, inactive

1) CC1COc2ccccc2N1C(=O)C(Cl)Cl (stereo unspecified)    inactive
2) O=C=NC1CCC(CC2CCC(N=C=O)CC2)CC1 (stereo unspecified)    inactive
3) CN(CCOc1ccc(CC2SC(=O)NC2=O)cc1)c1ccccn1 (stereo unspecified)    active
4) CCCCC(CC)COC(=O)/C=C\C(=O)OCC(CC)CCCC (stereo unspecified)    inactive

Please state the recorded outcome for this compound: CC(C)c1ccc(C(C)C)cc1
inactive

Please state the recorded outcome for this compound: C=CCOC(=O)CCC1CCCCC1
inactive

Origin of values: PubChem BioAssay (EPA / NIEHS)
